- recorded.conditions: in methanol, 298.25 K
property.measured: solubility (mole fraction)

Entry O=C([O-])c1ccccc1.[K+] — recorded solubility (mole fraction) = 0.0158

* * *

- recorded.conditions: in n-butanol, 308.25 K
property.measured: solubility (mole fraction)
Write the value as a bare number.

Entry O=C([O-])c1ccccc1.[K+] — recorded solubility (mole fraction) = 0.000795

* * *

- recorded.conditions: in n-propanol, 282.95 K
property.measured: solubility (mole fraction)
Write the value as a bare number.

Entry O=C([O-])c1ccccc1.[K+] — recorded solubility (mole fraction) = 0.000735

* * *

- recorded.conditions: in n-pentanol, 282.95 K
property.measured: solubility (mole fraction)
Write the value as a bare number.

Entry O=C([O-])c1ccccc1.[K+] — recorded solubility (mole fraction) = 0.000517

These entries and their values trace back to BigSolDB 2.1.
